# system: LRRK2 (G2019S) (Homo sapiens, UniProt Q5S007, G2019S)
# Sequence (Q5S007 970-2527 G2019S limits assumed): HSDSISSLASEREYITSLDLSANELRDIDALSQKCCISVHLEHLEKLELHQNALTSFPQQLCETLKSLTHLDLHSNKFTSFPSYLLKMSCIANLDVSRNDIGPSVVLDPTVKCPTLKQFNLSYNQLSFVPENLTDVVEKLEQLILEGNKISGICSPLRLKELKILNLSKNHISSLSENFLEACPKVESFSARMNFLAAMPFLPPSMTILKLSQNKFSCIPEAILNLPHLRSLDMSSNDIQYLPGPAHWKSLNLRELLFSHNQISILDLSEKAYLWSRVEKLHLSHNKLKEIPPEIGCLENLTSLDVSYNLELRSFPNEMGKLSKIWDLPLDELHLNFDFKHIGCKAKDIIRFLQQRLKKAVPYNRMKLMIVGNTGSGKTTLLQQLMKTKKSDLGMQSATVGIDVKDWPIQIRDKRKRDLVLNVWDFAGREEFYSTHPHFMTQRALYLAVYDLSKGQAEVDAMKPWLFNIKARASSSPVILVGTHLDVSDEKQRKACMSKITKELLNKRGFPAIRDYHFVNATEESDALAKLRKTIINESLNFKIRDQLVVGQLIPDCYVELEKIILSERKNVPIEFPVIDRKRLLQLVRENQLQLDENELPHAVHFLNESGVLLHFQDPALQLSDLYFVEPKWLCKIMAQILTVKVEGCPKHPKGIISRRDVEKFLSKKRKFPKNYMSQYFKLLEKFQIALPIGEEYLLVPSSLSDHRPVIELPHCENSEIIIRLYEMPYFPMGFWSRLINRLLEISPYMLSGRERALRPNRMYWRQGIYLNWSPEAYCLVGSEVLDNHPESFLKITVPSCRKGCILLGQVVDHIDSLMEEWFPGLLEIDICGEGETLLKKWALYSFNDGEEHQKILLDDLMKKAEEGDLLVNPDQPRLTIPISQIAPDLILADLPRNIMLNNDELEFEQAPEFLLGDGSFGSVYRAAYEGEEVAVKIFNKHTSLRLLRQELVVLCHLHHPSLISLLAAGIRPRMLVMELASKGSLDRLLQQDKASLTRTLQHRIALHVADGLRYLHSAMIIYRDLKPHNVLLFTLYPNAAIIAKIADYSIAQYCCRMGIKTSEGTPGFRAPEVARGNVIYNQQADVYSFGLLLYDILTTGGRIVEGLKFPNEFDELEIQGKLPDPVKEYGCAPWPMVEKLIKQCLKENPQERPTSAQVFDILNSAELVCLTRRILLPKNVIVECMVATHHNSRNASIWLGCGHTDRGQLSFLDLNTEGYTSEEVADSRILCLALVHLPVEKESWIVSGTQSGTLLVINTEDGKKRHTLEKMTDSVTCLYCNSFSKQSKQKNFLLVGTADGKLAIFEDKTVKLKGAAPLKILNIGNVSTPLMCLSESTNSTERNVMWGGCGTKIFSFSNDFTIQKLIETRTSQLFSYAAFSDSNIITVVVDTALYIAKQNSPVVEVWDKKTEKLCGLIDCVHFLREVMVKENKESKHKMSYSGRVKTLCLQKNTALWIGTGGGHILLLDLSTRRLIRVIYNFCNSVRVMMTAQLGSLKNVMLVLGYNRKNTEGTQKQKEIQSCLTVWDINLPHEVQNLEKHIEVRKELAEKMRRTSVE
# test: LRRK2 G2019S enzyme inhibition, ADP-Glo kinase assay
Measured IC50, listed per entry.
property label: IC50

molecule | system | recorded measurement
CCNc1cc(Nc2ccc(S(=O)(=O)N3CCOCC3)cc2OC)nc2[nH]cc(Cl)c12 [Example 65] | LRRK2 (G2019S) (Homo sapiens, UniProt Q5S007, G2019S) | 301 to 1000 nM
CNc1cc(Nc2ccc(S(=O)(=O)N3CCOCC3)c3c2OCCO3)nc2[nH]cc(C(F)(F)F)c12 [Example 98] | LRRK2 (G2019S) (Homo sapiens, UniProt Q5S007, G2019S) | < 100 nM
COc1cc(S(C)(=O)=O)ccc1Nc1cc(NC2CCCCC2)c2c(C(F)(F)F)c[nH]c2n1 [Example 182] | LRRK2 (G2019S) (Homo sapiens, UniProt Q5S007, G2019S) | 301 to 1000 nM
CCNc1cc(Nc2ccc(S(C)(=O)=O)cc2OC)nc2[nH]cc(C(F)(F)F)c12 [Example 180] | LRRK2 (G2019S) (Homo sapiens, UniProt Q5S007, G2019S) | 301 to 1000 nM
CNc1cc(Nc2ccc(C(=O)N3CCC(N4C[C@@H]5C[C@H]4CO5)CC3)c3c2OCC3)nc2[nH]cc(C(F)(F)F)c12 [Example 241] | LRRK2 (G2019S) (Homo sapiens, UniProt Q5S007, G2019S) | < 100 nM
CC(C)CNc1cc(Nc2ccc(C(=O)N3CCOCC3)c3c2OCCO3)nc2[nH]cc(C(F)(F)F)c12 [Example 156] | LRRK2 (G2019S) (Homo sapiens, UniProt Q5S007, G2019S) | 301 to 1000 nM
COc1cc(S(=O)(=O)N2CCOCC2)ccc1Nc1cc(NC2CCCCC2)c2c(Cl)c[nH]c2n1 [Example 70] | LRRK2 (G2019S) (Homo sapiens, UniProt Q5S007, G2019S) | 301 to 1000 nM
N#Cc1c[nH]c2nc(Nc3ccc(C(=O)N4CCOCC4)c4c3OCCO4)cc(NC3CCCC3)c12 [Example 112] | LRRK2 (G2019S) (Homo sapiens, UniProt Q5S007, G2019S) | < 100 nM
COc1cc(S(=O)(=O)N2CCC(N3C[C@@H]4C[C@H]3CO4)CC2)ccc1Nc1cc(C2CC2)c2c(C(F)(F)F)c[nH]c2n1 [Example 240] | LRRK2 (G2019S) (Homo sapiens, UniProt Q5S007, G2019S) | 301 to 1000 nM
O=C(c1ccc(Nc2cc(C3CC3)c3c(C(F)(F)F)c[nH]c3n2)c2c1OCCO2)N1CCOCC1 [Example 220] | LRRK2 (G2019S) (Homo sapiens, UniProt Q5S007, G2019S) | 301 to 1000 nM
COc1cc(S(=O)(=O)N2CCOCC2)ccc1Nc1cc(NCCS(C)(=O)=O)c2cc[nH]c2n1 [Example 17] | LRRK2 (G2019S) (Homo sapiens, UniProt Q5S007, G2019S) | 301 to 1000 nM
CCCNc1cc(Nc2ccc(S(=O)(=O)N3CCC(N4CCOCC4)CC3)cc2OC)nc2[nH]ccc12 [Example 20] | LRRK2 (G2019S) (Homo sapiens, UniProt Q5S007, G2019S) | < 100 nM
COCCNc1cc(Nc2ccc(S(=O)(=O)N3CCC(N4CCOCC4)CC3)cc2OC)nc2[nH]cc(C(F)(F)F)c12 [Example 197] | LRRK2 (G2019S) (Homo sapiens, UniProt Q5S007, G2019S) | < 100 nM
COc1cc(S(=O)(=O)N2CCOCC2)ccc1Nc1cc(NCC(C)C)c2c(C(F)(F)F)c[nH]c2n1 [Example 189] | LRRK2 (G2019S) (Homo sapiens, UniProt Q5S007, G2019S) | 301 to 1000 nM
CNc1cc(Nc2ccc(S(=O)(=O)N3CCOCC3)cc2OC)nc2[nH]cc(C#N)c12 [Example 131] | LRRK2 (G2019S) (Homo sapiens, UniProt Q5S007, G2019S) | < 100 nM
